Listed below: mass density values for each entry.
Experimental Setup: 298.15 K; 101.33 kPa; Liquid; Vibrating tube method

Substance Smiles	Scale Unit	mass density
CC(C)Cn1cc[n+](C)c1.O=S(=O)([N-]S(=O)(=O)C(F)(F)F)C(F)(F)F	kg/m3	1437.2
CCCC[N+]1(C)CCCCC1.O=S(=O)([N-]S(=O)(=O)C(F)(F)F)C(F)(F)F	kg/m3	1382.5
CC(C)C[N+]1(C)CCCC1.O=S(=O)([N-]S(=O)(=O)C(F)(F)F)C(F)(F)F	kg/m3	1400
Cc1ccc[n+](CC(C)C)c1.O=S(=O)([N-]S(=O)(=O)C(F)(F)F)C(F)(F)F	kg/m3	1412.6
CCCC[n+]1cccc(C)c1.O=S(=O)([N-]S(=O)(=O)C(F)(F)F)C(F)(F)F	kg/m3	1414.1
CCCC[N+]1(C)CCCC1.O=S(=O)([N-]S(=O)(=O)C(F)(F)F)C(F)(F)F	kg/m3	1401.6

* * *

Experimental Setup: 338.2 K; Liquid; Pendant drop shape

Substance Smiles	surface tension liquid-gas [mN/m]
CC(C)C[N+]1(C)CCCC1.O=S(=O)([N-]S(=O)(=O)C(F)(F)F)C(F)(F)F	31.75
Cc1ccc[n+](CC(C)C)c1.O=S(=O)([N-]S(=O)(=O)C(F)(F)F)C(F)(F)F	31.63
CC(C)C[N+]1(C)CCCCC1.O=S(=O)([N-]S(=O)(=O)C(F)(F)F)C(F)(F)F	32.56
CCCC[N+]1(C)CCCCC1.O=S(=O)([N-]S(=O)(=O)C(F)(F)F)C(F)(F)F	32.2
CC(C)Cn1cc[n+](C)c1.O=S(=O)([N-]S(=O)(=O)C(F)(F)F)C(F)(F)F	30.9

* * *

Experimental Setup: 338.15 K; 101.33 kPa; Liquid; Vibrating tube method

Substance Smiles	mass density [kg/m3]
CC(C)Cn1cc[n+](C)c1.O=S(=O)([N-]S(=O)(=O)C(F)(F)F)C(F)(F)F	1399.5
CC(C)C[N+]1(C)CCCC1.O=S(=O)([N-]S(=O)(=O)C(F)(F)F)C(F)(F)F	1365.2
CCCC[n+]1cccc(C)c1.O=S(=O)([N-]S(=O)(=O)C(F)(F)F)C(F)(F)F	1377.6
CC(C)C[N+]1(C)CCCCC1.O=S(=O)([N-]S(=O)(=O)C(F)(F)F)C(F)(F)F	1363.3
Cc1ccc[n+](CC(C)C)c1.O=S(=O)([N-]S(=O)(=O)C(F)(F)F)C(F)(F)F	1376.1
CCCC[N+]1(C)CCCCC1.O=S(=O)([N-]S(=O)(=O)C(F)(F)F)C(F)(F)F	1348.3
CCCC[N+]1(C)CCCC1.O=S(=O)([N-]S(=O)(=O)C(F)(F)F)C(F)(F)F	1366.4

* * *

Experimental Setup: 333.15 K; 101.33 kPa; Liquid; Vibrating tube method
± gives the expanded uncertainty stated by the source.
Measured mass density by item
Measurement Type: mass density

Substance Smiles	Measurement Type	Result Value
CCCC[n+]1cccc(C)c1.O=S(=O)([N-]S(=O)(=O)C(F)(F)F)C(F)(F)F	mass density	1382 ± 0.7 kg/m3
CC(C)Cn1cc[n+](C)c1.O=S(=O)([N-]S(=O)(=O)C(F)(F)F)C(F)(F)F	mass density	1404.2 ± 1.8 kg/m3
CCCC[N+]1(C)CCCCC1.O=S(=O)([N-]S(=O)(=O)C(F)(F)F)C(F)(F)F	mass density	1352.5 ± 0.6 kg/m3
CCCC[N+]1(C)CCCC1.O=S(=O)([N-]S(=O)(=O)C(F)(F)F)C(F)(F)F	mass density	1370.7 ± 0.6 kg/m3
CC(C)C[N+]1(C)CCCCC1.O=S(=O)([N-]S(=O)(=O)C(F)(F)F)C(F)(F)F	mass density	1367.5 ± 1.7 kg/m3
CC(C)C[N+]1(C)CCCC1.O=S(=O)([N-]S(=O)(=O)C(F)(F)F)C(F)(F)F	mass density	1369.4 ± 1.7 kg/m3
Cc1ccc[n+](CC(C)C)c1.O=S(=O)([N-]S(=O)(=O)C(F)(F)F)C(F)(F)F	mass density	1380.6 ± 1.7 kg/m3

* * *

Experimental Setup: 328.15 K; 101.33 kPa; Liquid; Vibrating tube method
Measurement Type: mass density (kg/m3)

Substance Smiles	Measurement Type	Result Value
CCCC[n+]1cccc(C)c1.O=S(=O)([N-]S(=O)(=O)C(F)(F)F)C(F)(F)F	mass density	1386.6
CC(C)C[N+]1(C)CCCC1.O=S(=O)([N-]S(=O)(=O)C(F)(F)F)C(F)(F)F	mass density	1373.7
CC(C)C[N+]1(C)CCCCC1.O=S(=O)([N-]S(=O)(=O)C(F)(F)F)C(F)(F)F	mass density	1371.7
CCCC[N+]1(C)CCCCC1.O=S(=O)([N-]S(=O)(=O)C(F)(F)F)C(F)(F)F	mass density	1356.7
Cc1ccc[n+](CC(C)C)c1.O=S(=O)([N-]S(=O)(=O)C(F)(F)F)C(F)(F)F	mass density	1385.1
CC(C)Cn1cc[n+](C)c1.O=S(=O)([N-]S(=O)(=O)C(F)(F)F)C(F)(F)F	mass density	1408.8
CCCC[N+]1(C)CCCC1.O=S(=O)([N-]S(=O)(=O)C(F)(F)F)C(F)(F)F	mass density	1375.1

* * *

Experimental Setup: 308.2 K; Liquid; Pendant drop shape
surface tension liquid-gas listing for selected molecules.
Measurement Type: surface tension liquid-gas (mN/m)

Substance Smiles	Measurement Type	Scale Unit	Result Value
Cc1ccc[n+](CC(C)C)c1.O=S(=O)([N-]S(=O)(=O)C(F)(F)F)C(F)(F)F	surface tension liquid-gas	mN/m	32.99
CCCC[N+]1(C)CCCCC1.O=S(=O)([N-]S(=O)(=O)C(F)(F)F)C(F)(F)F	surface tension liquid-gas	mN/m	33.65
CC(C)C[N+]1(C)CCCC1.O=S(=O)([N-]S(=O)(=O)C(F)(F)F)C(F)(F)F	surface tension liquid-gas	mN/m	33.1
CC(C)Cn1cc[n+](C)c1.O=S(=O)([N-]S(=O)(=O)C(F)(F)F)C(F)(F)F	surface tension liquid-gas	mN/m	32.26
CC(C)C[N+]1(C)CCCCC1.O=S(=O)([N-]S(=O)(=O)C(F)(F)F)C(F)(F)F	surface tension liquid-gas	mN/m	33.9

* * *

Experimental Setup: 348.15 K; 101.33 kPa; Liquid; Vibrating tube method
Listed compounds paired with reported mass density
Measurement Type: mass density (kg/m3)

Substance Smiles	Result Value
CC(C)Cn1cc[n+](C)c1.O=S(=O)([N-]S(=O)(=O)C(F)(F)F)C(F)(F)F	1390.3
CCCC[N+]1(C)CCCC1.O=S(=O)([N-]S(=O)(=O)C(F)(F)F)C(F)(F)F	1357.8
CC(C)C[N+]1(C)CCCC1.O=S(=O)([N-]S(=O)(=O)C(F)(F)F)C(F)(F)F	1356.7
Cc1ccc[n+](CC(C)C)c1.O=S(=O)([N-]S(=O)(=O)C(F)(F)F)C(F)(F)F	1367.2
CCCC[n+]1cccc(C)c1.O=S(=O)([N-]S(=O)(=O)C(F)(F)F)C(F)(F)F	1368.7
CC(C)C[N+]1(C)CCCCC1.O=S(=O)([N-]S(=O)(=O)C(F)(F)F)C(F)(F)F	1355
CCCC[N+]1(C)CCCCC1.O=S(=O)([N-]S(=O)(=O)C(F)(F)F)C(F)(F)F	1340

* * *

Experimental Setup: 358.15 K; 101.33 kPa; Liquid; Concentric cylinders viscometry
# viscosity per record follows

Substance Smiles	viscosity (mPa·s)
CCCC[n+]1cccc(C)c1.O=S(=O)([N-]S(=O)(=O)C(F)(F)F)C(F)(F)F	9.66
CCCC[N+]1(C)CCCCC1.O=S(=O)([N-]S(=O)(=O)C(F)(F)F)C(F)(F)F	17.09
CC(C)C[N+]1(C)CCCC1.O=S(=O)([N-]S(=O)(=O)C(F)(F)F)C(F)(F)F	10.7
Cc1ccc[n+](CC(C)C)c1.O=S(=O)([N-]S(=O)(=O)C(F)(F)F)C(F)(F)F	11.14
CC(C)Cn1cc[n+](C)c1.O=S(=O)([N-]S(=O)(=O)C(F)(F)F)C(F)(F)F	10.31
CC(C)C[N+]1(C)CCCCC1.O=S(=O)([N-]S(=O)(=O)C(F)(F)F)C(F)(F)F	16.14
CCCC[N+]1(C)CCCC1.O=S(=O)([N-]S(=O)(=O)C(F)(F)F)C(F)(F)F	11.77

* * *

Experimental Setup: 343.2 K; Liquid; Pendant drop shape
Measurement Type: surface tension liquid-gas (mN/m)

Substance Smiles	Result Value
CC(C)C[N+]1(C)CCCCC1.O=S(=O)([N-]S(=O)(=O)C(F)(F)F)C(F)(F)F	32.34
CC(C)Cn1cc[n+](C)c1.O=S(=O)([N-]S(=O)(=O)C(F)(F)F)C(F)(F)F	30.67
Cc1ccc[n+](CC(C)C)c1.O=S(=O)([N-]S(=O)(=O)C(F)(F)F)C(F)(F)F	31.4
CCCC[N+]1(C)CCCCC1.O=S(=O)([N-]S(=O)(=O)C(F)(F)F)C(F)(F)F	31.96
CC(C)C[N+]1(C)CCCC1.O=S(=O)([N-]S(=O)(=O)C(F)(F)F)C(F)(F)F	31.53

These entries and their values trace back to the NIST ThermoML archive (doi:10.1016/j.fluid.2016.04.009).
